- target_or_system: MMP-13h (Homo sapiens (Human))
- protocol: Inhibition constant (Ki) on MMP-13h
- Type: biochemical
- assay_context: read-out: Ki MMP-13h; human MMP-13
Catalogue of Ki readings, one per entry.
Could you give me the number in nM? Just the number is fine.

Cc1ccc(-c2ccc(CCC(=O)N[C@@H](CCC(=O)O)C(=O)N[C@@H](CCC(=O)O)C(N)=O)cc2)s1 | 564

Prompt: Name the reported Ki value associated with the compound C[C@H](NC(=O)[C@H](CCC(=O)O)NC(=O)CCc1cc(-c2ccc(-c3ccccc3)cc2)no1)C(N)=O
Completion: 80

---

- target_or_system: MMP-7h (Homo sapiens (Human), UniProt P09237)
- Sequence (P09237 95-267): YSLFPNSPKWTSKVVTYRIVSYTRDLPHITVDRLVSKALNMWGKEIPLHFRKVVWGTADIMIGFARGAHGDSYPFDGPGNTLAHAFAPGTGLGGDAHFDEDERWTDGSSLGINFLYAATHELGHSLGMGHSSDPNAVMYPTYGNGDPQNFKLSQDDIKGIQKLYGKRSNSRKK
- protocol: Inhibition constant (Ki) on MMP-7h
- Assay type: biochemical
- assay_context: read-out: Ki MMP-7h; human MMP-7
Listing of recorded Ki by entry.

NC(=O)[C@H](CCC(=O)O)NC(=O)[C@H](CCC(=O)O)NC(=O)CCc1ccc(-c2ccc(-c3ccccc3)cc2)cc1 [Compound 61] | 502 nM
NC(=O)[C@H](CCC(=O)O)NC(=O)[C@H](CCC(=O)O)NC(=O)[C@@H](CC(=O)O)Cc1ccc(-c2cc(-c3ccccc3)cs2)cc1 [95 bis] | > 1000 nM

Prompt: Fill in the blank: the reported Ki of O=C(O)CC[C@H](NC(=O)CCc1ccc(-c2cc(-c3ccccc3)cs2)cc1)C(=O)Nc1cccc(CC(=O)O)c1 [Compound 106] is ____.
Completion: > 1000 nM
